Reference for the values: ChEMBL document CHEMBL3112534

Activity reference
System: Escherichia coli
Test: Binding affinity to Escherichia coli MRE600 23S rRNA assessed as protection of U2585 at 50 uM by footprinting assay relative to control in presence of CMCT

{"columns": ["compound structure string", "Activity [%]"],
 "data": [
  ["C=C[C@]1(C)C[C@@H](OC(=O)Cn2cc(CN(CC)CC)nn2)[C@]2(C)[C@H](C)CC[C@]3(CCC(=O)[C@H]32)[C@@H](C)[C@@H]1O", 28],
  ["C=C[C@]1(C)C[C@@H](OC(=O)CSCCN(CC)CC)[C@]2(C)[C@H](C)CC[C@]3(CCC(=O)[C@H]32)[C@@H](C)[C@@H]1O", 40],
  ["C=C[C@]1(C)C[C@@H](OC(=O)Cn2cc(COCCn3cnc4c(N)ncnc43)nn2)[C@]2(C)[C@H](C)CC[C@]3(CCC(=O)[C@H]32)[C@@H](C)[C@@H]1O", 14],
  ["C=C[C@]1(C)C[C@@H](OC(=O)CSC(C)(C)CNC(=O)[C@H](N)C(C)C)[C@]2(C)[C@H](C)CC[C@]3(CCC(=O)[C@H]32)[C@@H](C)[C@@H]1O", 12],
  ["C=C[C@]1(C)C[C@@H](OC(=O)CO)[C@]2(C)[C@H](C)CC[C@]3(CCC(=O)[C@@H]32)[C@@H](C)[C@@H]1O", 59]
]}

====

Each item that follows carries a reported MIC.
Test system: Staphylococcus aureus
Test: Antimicrobial activity against […] Staphylococcus aureus RN4220 after 20 hrs by two-fold broth dilution assay
Type: functional
Conditions: RN4220, 20 h

{"columns": ["compound structure string", "target", "result unit", "qualifier operator", "MIC"],
 "data": [
  ["C=C[C@]1(C)C[C@@H](OC(=O)Cn2cc(-c3cccc(-n4cnc5c(N)ncnc54)c3)nn2)[C@]2(C)[C@H](C)CC[C@]3(CCC(=O)[C@H]32)[C@@H](C)[C@@H]1O", "Staphylococcus aureus", "µg/mL", "=", 0.06],
  ["C=C[C@]1(C)C[C@@H](OC(=O)Cn2cc(CN(CC)CC)nn2)[C@]2(C)[C@H](C)CC[C@]3(CCC(=O)[C@H]32)[C@@H](C)[C@@H]1O", "Staphylococcus aureus", "µg/mL", ">", 4],
  ["C=C[C@]1(C)C[C@@H](OC(=O)Cn2cc(COCCn3cnc4c(N)ncnc43)nn2)[C@]2(C)[C@H](C)CC[C@]3(CCC(=O)[C@H]32)[C@@H](C)[C@@H]1O", "Staphylococcus aureus", "µg/mL", ">", 4],
  ["C=C[C@]1(C)C[C@@H](OC(=O)Cn2cc(/C=C/Cn3cnc4c(N)ncnc43)nn2)[C@]2(C)[C@H](C)CC[C@]3(CCC(=O)[C@H]32)[C@@H](C)[C@@H]1O", "Staphylococcus aureus", "µg/mL", "=", 1]
]}

====

Tested on: Escherichia coli
Test: Binding affinity to Escherichia coli MRE600 23S rRNA assessed as protection of U2506 at 5 uM by footprinting assay relative to control in presence of CMCT
assay readout: Activity

{"columns": ["compound structure string", "observed result"],
 "data": [
  ["C=C[C@]1(C)C[C@@H](OC(=O)Cn2cc(COCCn3cnc4c(N)ncnc43)nn2)[C@]2(C)[C@H](C)CC[C@]3(CCC(=O)[C@H]32)[C@@H](C)[C@@H]1O", "9%"],
  ["C=C[C@]1(C)C[C@@H](OC(=O)Cn2cc(CN(CC)CC)nn2)[C@]2(C)[C@H](C)CC[C@]3(CCC(=O)[C@H]32)[C@@H](C)[C@@H]1O", "27%"],
  ["C=C[C@]1(C)C[C@@H](OC(=O)CSC(C)(C)CNC(=O)[C@H](N)C(C)C)[C@]2(C)[C@H](C)CC[C@]3(CCC(=O)[C@H]32)[C@@H](C)[C@@H]1O", "2%"],
  ["C=C[C@]1(C)C[C@@H](OC(=O)CO)[C@]2(C)[C@H](C)CC[C@]3(CCC(=O)[C@@H]32)[C@@H](C)[C@@H]1O", "15%"],
  ["C=C[C@]1(C)C[C@@H](OC(=O)CSCCN(CC)CC)[C@]2(C)[C@H](C)CC[C@]3(CCC(=O)[C@H]32)[C@@H](C)[C@@H]1O", "5%"]
]}
